target: BACE1 (Homo sapiens); experiment: In Vitro BACE Cell-based Assay (HEK cell assay): Aβ40 in conditioned medium of cells stably expressing Amyloid Precursor Protein, sandwich ELISA; details: read-out: HEK cell assay
Sequence (P56817 46-501, species assumed): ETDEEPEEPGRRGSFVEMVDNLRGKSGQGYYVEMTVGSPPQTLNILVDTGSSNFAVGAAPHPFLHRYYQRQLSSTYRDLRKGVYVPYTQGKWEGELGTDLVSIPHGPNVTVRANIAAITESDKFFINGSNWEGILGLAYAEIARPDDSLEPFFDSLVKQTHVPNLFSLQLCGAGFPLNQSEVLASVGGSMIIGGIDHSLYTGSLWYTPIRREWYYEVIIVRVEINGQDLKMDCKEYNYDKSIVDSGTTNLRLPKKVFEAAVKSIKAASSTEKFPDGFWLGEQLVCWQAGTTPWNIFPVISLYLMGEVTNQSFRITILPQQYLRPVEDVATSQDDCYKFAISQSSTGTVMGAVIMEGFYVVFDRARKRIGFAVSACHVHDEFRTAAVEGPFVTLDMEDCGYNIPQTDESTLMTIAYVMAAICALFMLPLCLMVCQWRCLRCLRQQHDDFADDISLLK
ATTRIBUTE_MEASURED: IC50

Could I get IC50 for every one of these entries?
1. NC1=N[C@@]2(CO1)c1cc(-c3cncnc3)ccc1Oc1ncc(C#CC3CC3)cc12 [compound 742]
2. NC1=N[C@@]2(CO1)c1cc(-c3cccnc3)ccc1Oc1cnc(C3=CCOCC3)cc12 [compound 790]
3. NC1=N[C@@]2(CO1)c1cc(-c3cccnc3)ccc1Oc1cnc(CCC3CC3)cc12 [compound 695]
4. NC1=N[C@]2(CO1)c1cc(-c3cccnc3)ccc1Oc1cnc(-c3cccnc3)cc12 [compound 954]
5. NC1=N[C@]2(CO1)c1ccccc1Oc1ccc(-c3cccnc3)cc12 [compound 684]

Completion:
["< 100 nM", "< 100 nM", "100 to 1000 nM", "100 to 1000 nM", "100 to 1000 nM"]

Return reported IC50 values for all items listed beneath this line.
1. CC(C)(C)COc1ccc2c(c1)[C@]1(COC(N)=N1)c1cc(-c3ncc[nH]3)ccc1O2 [compound 979]
2. CC1(COc2cc3c(cc2F)Oc2ccc(-c4cncnc4)cc2[C@]32COC(N)=N2)COC1 [compound 713]

Completion:
1: 1000 to 5000 nM; 2: 100 to 1000 nM
